system: SK-MEL-28 melanoma; assay: NCI-60 one-dose screen, 48 h (100 = growth as untreated, 0 = no growth, -100 = all killed); settings: 10 µM
About 83,000 compounds went through this panel and 20% of them were active in at least one assay; those are over-represented in the sample as a whole.
So I've got a bunch of molecules here, and I need their growth values.
Just the number in %, nothing appended.

May I ask what growth has been recorded for c1csc(-c2cc(-c3cc(-c4cccs4)[nH]n3)n[nH]2)c1 ?
105

Please do the same for OCC(O)C(O)C(O)C(O)/C=N/O (stereo not drawn) as well.
114

And C=CCNc1ccccc1 ?
99.9

What would you report for COc1ccc(C)cc1OC ?
115

One more molecule: COc1ccc(-c2cc3c(nn2)-c2ccccc2C3=O)cc1
-49.3

# repeat for CSc1[nH]c(=O)ncc1F
111

Same question for CCOC(=O)CSc1c([N+](=O)[O-])ncn1C please.
92.6

Another molecule: CC1CC(O)CC(C)(C)C1 (stereo not drawn)
112

Also check O=C1OC(=O)C2C1C1(Cl)C(Cl)=C(Cl)C2(Cl)C2C(=O)OC(=O)C21 (stereo not drawn)
107

Another molecule to check: CC1(O)OC(COc2ccc(Cl)cc2)COC1O (stereo not drawn)
107

Please do the same for CNC(=S)NC(C)(C)C as well.
108

What do you have for CC1=CC(C)(C)NC(=S)N1c1ccc(S(=O)(=O)O)c2cccc(S(=O)(=O)O)c12 ?
112

Try the molecule O=C(CCNNC(=O)c1ccncc1)NCc1ccccc1
103

Do the same for Cc1ccc(C(=O)NC2c3ccccc3Oc3ccccc32)cc1 please
61.4

Now give it for O=c1cc(-c2ccccc2)[nH]c(=S)[nH]1 too.
103

Also CC1=C(/C=C/C(C)=C/C=C/C(C)=C/CO)C(C)(C)CCC1 ?
113

Same lookup for O=C(NC1CCCCC1)OCc1c(COC(=O)NC2CCCCC2)c(-c2ccc(Cl)c(Cl)c2)n2c1CCC2 , please.
75.6

Next up: CCC(=O)Oc1ccc(OC)cc1
112

How about this molecule: CN(C)C(C)(C)CC(C)(C)C
109

Would you kindly repeat that for CCCCC1(CC)COC(CCC)OC1 (stereo not drawn) ?
115

Another molecule: O=S(=O)(O)c1ccc(Cl)c(Cl)c1
112

Repeat for the following molecule: CC(C)=C(NC(=O)c1ccccc1)C(=O)O
108

Entry to check: Cc1nc2ccccc2c2nnc(SCC(=O)N(Cc3ccccc3)c3ccccc3)n12
109

Subsequent entry: Cc1cc(C(O)(c2ccc(Nc3ccccc3)cc2)c2ccc(Nc3ccc(S(=O)(=O)O)cc3)cc2)ccc1N (stereo not drawn)
-86.9

Moving on to CC(C)(C)n1nc(C2CC2)c(Br)c1NC(=O)c1ccccc1F
100

Subsequent entry: CCOC(=O)c1coc(C(=O)OCC)c1C(=O)OCC
117

Would you kindly repeat that for Cc1ccccc1N=C(c1ccccc1)C1C(=O)c2ccccc2C1=O ?
89.4

Okay, and O=c1cc(-c2ccccc2)nc2cc(-c3ccco3)[nH]n12 ?
88.6

Same for CCc1nc(N)nc(N)c1-c1ccc(Cl)cc1
94.1

Subsequent entry: O=C(N/N=C/c1ccccc1O)Nc1nn[nH]n1
111

Ok, now COC1=CC(=O)c2nc(Cl)ccc2C1=O
111

Next up: CCCCOC(OCCCC)c1ccccc1
107

Another: CCOC(=O)C/C(C)=N\O
121

How about this molecule: CCC(C)(C)C1CCC(O)CC1 (stereo not drawn)
114

Same read-out for CC1OC(Oc2c(-c3ccc(O)c(O)c3)oc3cc(O)cc(O)c3c2=O)C(O)C(O)C1O (stereo not drawn) ?
105

# iterate: CCCC[P+](c1ccccc1)(c1ccccc1)c1ccccc1
69.1

Again, but for O=C(Nc1cc(-c2ccccc2)[nH]n1)c1ccc(Cl)cc1
117

Field entry: Cc1ccc(CCCC(=O)O)c(C)c1
98.1

Please answer likewise for O=c1cc(-c2ccccc2)[nH]c2c1CCCC2
52.1

Queued: O=c1[nH][nH]c(=O)c2cc([N+](=O)[O-])ccc12
115

// next record COc1cc(OC)c2ccc(=O)oc2c1
115

Likewise for CCCC(=O)c1cc(C)ccc1OC ?
105

Next record, please: O=c1c2ccccc2c(Br)c(Br)c2ccccc12
106

Subsequent entry: CC(CC(=O)c1ccccc1)c1ccccc1 (stereo not drawn)
101

// same read-out, input: [O-][N+](=Nc1cccc(Cl)c1)c1cccc(Cl)c1
113

Record: COc1cc(C(N)=O)cc(OC)c1OC
116

One more molecule: CNC(=O)c1ccccc1CC1(O)c2ccccc2Oc2ccccc21
63.8

And for CC(O)COc1ccc(-c2ccccc2)cc1 (stereo not drawn) ?
103

Request: N#CC1(Nc2ccc3c4c(cccc24)CC3)CCCCC1
103

Likewise for CCc1ccc(/C(C#N)=C/C=C/c2ccccc2)cc1 ?
51.8

Check COc1cc(CCN=Cc2ccccc2O)c([N+](=O)[O-])cc1OC too.
113

Also check Cc1cc(N)c(S(=O)(=O)O)c(N)c1
104

Repeat for the following molecule: CCOC(=O)CCCS(C)(=O)=O
104
